# Test system: Vero E6 infected with SARS-CoV-2
# protocolDetails: SARS-CoV-2 infection rate relative to infected DMSO; higher = more infection, active = 60 or less
# conditionLabel: 24 h
readoutName: SARS-CoV-2 infection rate

Some compounds with recorded SARS-CoV-2 infection rate:
Cc1cccn2c(=O)c(/C=C(\C#N)c3nc4ccccc4s3)c(Oc3ccc(F)cc3)nc12 (10 µM): 102% (inactive)
COc1ccccc1N1CCN(CCN2C(=O)c3ccccc3C(C)(C)C2=O)CC1 (10 µM): 100% (inactive)
C/C(=N\NC(=O)[C@@H]1C(=O)NC[C@H]1c1ccccc1)c1cccc(Br)c1 (10 µM): 112% (inactive)

Look at each compound and report its SARS-CoV-2 infection rate.
1. Cn1c(=O)cc(N2CCC[C@@H](N)C2)n(Cc2cc(F)ccc2C#N)c1=O [trelagliptin] (10 µM)
2. O=C(O)c1ccc2cc(-c3ccc(O)c(C45CC6CC(CC(C6)C4)C5)c3)ccc2c1 (0.833333 µM)
3. CC(C)Nc1nc2cc(Cl)c(Cl)cc2n1[C@H]1O[C@@H](CO)[C@H](O)[C@@H]1O [maribavir] (10 µM)
4. COc1ccc(CCC(=O)c2c(O)cc(O[C@@H]3O[C@H](CO)[C@@H](O)[C@H](O)[C@H]3O[C@@H]3O[C@@H](C)[C@H](O)[C@@H](O)[C@H]3O)cc2O)cc1O [Neohesperidin dihydrochalcone (Nhdc)] (10 µM)

Output:
1: 99% (inactive); 2: 87.5% (inactive); 3: 122% (inactive); 4: 99.5% (inactive)

Look at each compound and report its SARS-CoV-2 infection rate.
1. CCCCc1nc(C)c(CC(=S)N(C)C)c(=O)n1Cc1ccc(-c2ccccc2-c2nnn[nH]2)cc1 [fimasartan] (10 µM)
2. CCC(CC)[C@H](NC(C)=O)[C@@H]1[C@H](O)[C@@H](C(=O)O)C[C@H]1NC(=N)N [peramivir] (10 µM)
3. CC(C)=CCC/C(C)=C/CC/C(C)=C/CC[C@]1(C)CCc2cc(O)cc(C)c2O1 [delta-tocotrienol] (10 µM)
4. Cc1c(C)c2c(c(C)c1O)CC[C@@](C)(CCC[C@H](C)CCC[C@H](C)CCCC(C)C)O2 [vitamin-E] (10 µM)
5. C1=Cc2cccc(OCC3CNCCO3)c2C1 (stereo not given) [indeloxazine] (10 µM)

Output:
1. 112% (inactive)
2. 102% (inactive)
3. 104% (inactive)
4. 117% (inactive)
5. 106% (inactive)

Look at each compound and report its SARS-CoV-2 infection rate.
1. CCN1CCCC(OC(=O)C(c2ccccc2)c2ccccc2)C1 (stereo not given) [piperidolate] (10 µM)
2. c1ccc(Cn2c(-c3ccc(OC[C@H](C4CCNCC4)n4c(-c5ccccc5)nc5ccccc54)cc3)nc3ccccc32)cc1 [deltarasin] (0.833333 µM)
3. N=C(NCCC[C@H](N)C(=O)O)N[N+](=O)[O-] [NG-nitro-arginine] (10 µM)

Output:
1: 106% (inactive); 2: 96% (inactive); 3: 108% (inactive)

====

# Test system: Vero E6 infected with SARS-CoV-2
# protocolDetails: SARS-CoV-2 infection rate relative to infected DMSO; higher = more infection, active = 60 or less
# conditionLabel: 24 h
readoutName: SARS-CoV-2 infection rate (%)
Give bare numbers, in %.

Some compounds with recorded SARS-CoV-2 infection rate:
O=C(O)CC(S)C(=O)O (stereo not drawn) [mercaptosuccinic-acid] (10 µM): 108
C=C[C@](C)(O)CC[C@@H]1[C@@]2(C)CCCC(C)(C)[C@@H]2CC[C@@]1(C)O [sclareol] (10 µM): 95.5
CN1CC[C@@H](NC(=O)Nc2ccc(C#N)cc2)C[C@@H]1c1nc2ccccc2[nH]1 [glasdegib] (10 µM): 100
COc1cc2c(c(OC)c1OC)-c1ccc(OC)c(=O)cc1[C@@H](NC(C)=O)CC2 [colchicine] (10 µM): 96
COC(=O)Nc1nc2cc(C(=O)c3ccccc3)ccc2[nH]1 [mebendazole] (0.833333 µM): 102

Look at each compound and report its SARS-CoV-2 infection rate.
1. CC(C)NC[C@@H](O)COc1ccccc1-n1cccc1 (racemic) [isamoltane] (10 µM)
2. Cc1cccc(-c2n[nH]cc2-c2ccc3ncccc3n2)n1 [repsox] (10 µM)
3. C[C@@H](C(=O)O)c1ccc(-c2ccccc2)c(F)c1 (racemic) [flurbiprofen-(+/-)] (10 µM)

Output:
114
97
107
